Reported IC50 against CypD (Homo sapiens, UniProt P30405), gathered from multiple publications, appears below.

Input: Enter recorded IC50 with CypD (Homo sapiens, UniProt P30405) for `Nc1ccc(C2(NC(=O)CN3C(=O)[C@@H]4[C@@H]5CC[C@@H](C5)[C@@H]4C3=O)CC2)cc1` here.
Output: 10 to 200 µM

Input: Enter recorded IC50 with CypD (Homo sapiens, UniProt P30405) for `O=C(NCCc1ccc2c(c1)[C@H]1C[C@@H](N2)[C@H](O)CO1)C(=O)NCc1cccc(C(F)(F)F)c1` here.
Output: 10 to 100 µM

Input: Enter recorded IC50 with CypD (Homo sapiens, UniProt P30405) for `O=C(NCCc1cccc(C(F)(F)F)c1)C(=O)NCCc1ccc2c(c1)[C@H]1C[C@@H](N2)[C@H](O)CO1` here.
Output: < 10 µM

Input: Enter recorded IC50 with CypD (Homo sapiens, UniProt P30405) for `O=C(NCCc1ccccc1)C(=O)NCCc1ccc2c(c1)[C@H]1C[C@@H](N2)[C@H](O)CO1` here.
Output: < 10 µM

Input: Enter recorded IC50 with CypD (Homo sapiens, UniProt P30405) for `O=C(CN1C(=O)[C@@H]2[C@@H]3CC[C@@H](C3)[C@@H]2C1=O)NCCc1ccc2c(c1)CCCN2` here.
Output: 10 to 200 µM

Input: Enter recorded IC50 with CypD (Homo sapiens, UniProt P30405) for `NCCOCCNC(=O)[C@@H]1CCNC(=O)/C=C/C(=O)N2CCC[C@](Cc3ccccc3)(C2)C(=O)N[C@@H](Cc2ccco2)C(=O)NCc2ccccc2CC(=O)N1` here.
Output: 0.2 µM

Input: Enter recorded IC50 with CypD (Homo sapiens, UniProt P30405) for Nc1ccc(CCNC(=O)CN2C(=O)C3CCCCC3C2=O)cc1 (stereo not shown) here.
Output: 10 to 200 µM
